Source listed as the supplement of paper PMC11246515.

# assay-remarks: total protein half-life in vivo (active degradation + dilution); higher = more stable protein
# conditions-used: wild type E. coli NCM3722; growth: N-lim chemostat; doubling time 12 h
measured-metric: total protein half-life in vivo (h)
The response must be a number in h with no trailing unit.

[[record]]
macromolecule_sequence = "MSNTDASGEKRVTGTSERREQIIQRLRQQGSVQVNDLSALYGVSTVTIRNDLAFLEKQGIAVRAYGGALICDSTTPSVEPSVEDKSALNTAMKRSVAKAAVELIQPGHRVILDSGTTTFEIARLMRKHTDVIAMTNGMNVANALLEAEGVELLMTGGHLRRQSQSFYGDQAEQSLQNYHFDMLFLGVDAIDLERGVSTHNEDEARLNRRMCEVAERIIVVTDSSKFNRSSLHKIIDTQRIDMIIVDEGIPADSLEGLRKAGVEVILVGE [P0ACK2]"
measured_metric = "total protein half-life in vivo"
readout_unit = "h"
readout_value = 9.31


Ask: Can you share its total protein half-life in vivo? I mean this sequence: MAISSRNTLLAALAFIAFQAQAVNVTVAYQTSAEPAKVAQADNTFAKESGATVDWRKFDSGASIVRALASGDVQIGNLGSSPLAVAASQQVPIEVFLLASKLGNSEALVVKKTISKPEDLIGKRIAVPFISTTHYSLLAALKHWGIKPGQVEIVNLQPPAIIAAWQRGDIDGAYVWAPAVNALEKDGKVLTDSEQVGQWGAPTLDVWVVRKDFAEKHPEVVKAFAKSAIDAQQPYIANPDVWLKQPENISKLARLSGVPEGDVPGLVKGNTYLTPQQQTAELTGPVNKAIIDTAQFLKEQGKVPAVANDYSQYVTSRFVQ
Reply: 12.4

Ask: Can you share its total protein half-life in vivo? I mean this sequence: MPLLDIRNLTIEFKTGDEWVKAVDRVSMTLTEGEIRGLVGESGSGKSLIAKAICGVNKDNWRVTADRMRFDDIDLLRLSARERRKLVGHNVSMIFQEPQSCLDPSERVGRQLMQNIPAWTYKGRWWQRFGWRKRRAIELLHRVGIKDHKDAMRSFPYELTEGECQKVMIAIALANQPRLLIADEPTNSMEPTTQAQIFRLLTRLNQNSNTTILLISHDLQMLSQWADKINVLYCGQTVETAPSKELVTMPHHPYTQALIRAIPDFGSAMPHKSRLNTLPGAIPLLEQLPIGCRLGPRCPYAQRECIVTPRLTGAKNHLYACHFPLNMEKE [P0AAH4]
Reply: 10.5
